Attribution: patent US20060034833A1

Biological target: T1, human IFN-gamma (human, UniProt P01579 24-166)
T1 construct: The cell-based assays used IFN-γ 'expressed in CHO'; also called human IFN-γ; Interferon gamma
T1 sequence (looked up): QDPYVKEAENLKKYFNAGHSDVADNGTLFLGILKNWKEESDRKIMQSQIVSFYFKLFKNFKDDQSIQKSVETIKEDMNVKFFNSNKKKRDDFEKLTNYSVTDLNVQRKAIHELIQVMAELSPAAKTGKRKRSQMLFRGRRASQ
Assay: competition ELISA: VHH pre-incubated with biotinylated human IFN-γ, coated human IFN-γ receptor
readout_name: IC50

Examples with answers:
Tell me the measured IC50 of MP3C7SRA (VHH) VHH: QVQLQESGGGLVQAGDSLRLSCAASGRSFSSYGMGWFRQAPGKEHEFVAGIWRSGVSLYYADSVKGRFTISRDDAKMTVSLQMNSLKPEDTAVYYCAAEATFPTWNRGRFADYDYSGQGTQVTVSS , please.
> 200 µg/mL

Tell me the measured IC50 of MP4C10SR (VHH) VHH: QVQLQESGGGLVQPGGSLRLSCAASGFTVSNYAMSWVRQPPGKGIEWVSSINNRNDHITYADSVKGRFTIARDNANNILYLQMNSLKPEDTAVYYCASRVDDRVSRGQGTQVTVSS , please.
> 200 µg/mL

Next item in the queue.
Tell me the measured IC50 of MP3C1SR (VHH) VHH: QVQLQDSGGGLVQAGGSLRLSCAAAGISGSVFSRTPMGWYRQAPGKQRELVAGILSSGATVYAESVKGRFTISRDNAKNTVYLQMNSLSPEDTAEYYCNTYPTWVLSWGQGTQVTVSS , please.
> 200 µg/mL
